- Target desc: tankyrase 1 (Homo sapiens, UniProt O95271)
- Construct: purchased Trevigen 4700-096-K
- Sequence (O95271 whole entry): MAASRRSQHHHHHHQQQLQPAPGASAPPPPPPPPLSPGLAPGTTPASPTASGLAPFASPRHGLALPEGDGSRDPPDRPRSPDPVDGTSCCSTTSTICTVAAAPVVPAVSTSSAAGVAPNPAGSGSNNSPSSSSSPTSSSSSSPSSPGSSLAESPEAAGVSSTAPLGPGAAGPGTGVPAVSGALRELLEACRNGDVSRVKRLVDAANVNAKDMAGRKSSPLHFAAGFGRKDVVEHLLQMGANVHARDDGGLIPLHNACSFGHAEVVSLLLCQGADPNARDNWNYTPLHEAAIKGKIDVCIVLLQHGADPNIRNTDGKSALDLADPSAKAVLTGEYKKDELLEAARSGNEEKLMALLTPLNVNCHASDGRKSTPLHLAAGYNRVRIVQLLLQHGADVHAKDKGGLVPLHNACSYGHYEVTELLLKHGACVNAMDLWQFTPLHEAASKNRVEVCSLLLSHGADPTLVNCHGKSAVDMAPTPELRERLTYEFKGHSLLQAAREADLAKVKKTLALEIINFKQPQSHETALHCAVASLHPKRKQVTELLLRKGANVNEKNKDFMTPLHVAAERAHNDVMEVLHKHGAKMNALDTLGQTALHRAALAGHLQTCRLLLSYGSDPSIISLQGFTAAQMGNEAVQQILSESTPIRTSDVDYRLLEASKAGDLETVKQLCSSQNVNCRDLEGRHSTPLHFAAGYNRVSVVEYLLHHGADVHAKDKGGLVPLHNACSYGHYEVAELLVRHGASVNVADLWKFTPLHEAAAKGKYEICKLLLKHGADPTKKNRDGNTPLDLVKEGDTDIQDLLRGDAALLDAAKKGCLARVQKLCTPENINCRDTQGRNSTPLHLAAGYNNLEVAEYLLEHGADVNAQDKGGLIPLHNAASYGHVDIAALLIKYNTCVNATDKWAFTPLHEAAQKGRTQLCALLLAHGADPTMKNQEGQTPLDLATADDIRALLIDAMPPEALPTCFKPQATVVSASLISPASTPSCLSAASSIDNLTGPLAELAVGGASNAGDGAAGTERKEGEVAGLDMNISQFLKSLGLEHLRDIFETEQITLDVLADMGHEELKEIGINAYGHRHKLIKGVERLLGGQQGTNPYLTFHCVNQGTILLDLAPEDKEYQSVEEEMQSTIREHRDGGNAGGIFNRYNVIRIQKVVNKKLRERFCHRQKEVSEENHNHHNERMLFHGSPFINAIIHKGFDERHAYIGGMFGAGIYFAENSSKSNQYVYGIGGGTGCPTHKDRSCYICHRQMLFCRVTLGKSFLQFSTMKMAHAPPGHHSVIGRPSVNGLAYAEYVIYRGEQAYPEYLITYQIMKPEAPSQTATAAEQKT
- Test protocol: Analysis of activity of tankyrase 1 (Trevigen kit, ELISA absorbance at 450 nm)
- Format: biochemical
- Protocol conditions: Trevigen kit Cat. No. 4700-096-K; reaction at rt for 30 min; read-out: TNKS1 (IC50)
pIC50: −log10 of the molar value. Structures can show the parent of a compound that is named as a salt.
Rule: YES for pIC50 not less than 7, NO for anything less.

{"columns": ["Molecule", "Label value"],
 "data": [
  ["Cc1ncc2c(=O)[nH]c(N3CCN(c4c(F)cc(OCCN=[N+]=[N-])cc4F)CC3)nn12 [compound 31]", "NO"],
  ["Cc1ncc2c(=O)[nH]c(N3CCN(c4c(F)cc(OCCOC(=O)[C@H](C)N)cc4F)CC3)nn12 [compound 8, hydrochloride]", "YES"],
  ["Cc1ncc2c(=O)[nH]c(N3CCN(c4c(F)cc(OCCN5CCN(C)CC5=O)cc4F)CC3)nn12 [compound 33]", "NO"],
  ["Cc1ncc2c(=O)[nH]c(N3CCN(c4c(F)cc(OCCN5CCC(N)CC5)cc4F)CC3)nn12 [compound 34]", "YES"],
  ["Cc1ncc2c(=O)[nH]c(N3CCN(c4c(F)cc(OCCO)cc4F)CC3)nn12 [compound 7]", "YES"],
  ["Cc1ncc2c(=O)[nH]c(N3CCN(c4c(F)cc(OCCN(C)C)cc4F)CC3)nn12 [compound 6]", "YES"]
]}
